meta.source: paper PMC5927461

- Target Entity: hTRPM8 (Homo sapiens, UniProt Q7Z2W7)
- Sequence (Q7Z2W7 whole entry): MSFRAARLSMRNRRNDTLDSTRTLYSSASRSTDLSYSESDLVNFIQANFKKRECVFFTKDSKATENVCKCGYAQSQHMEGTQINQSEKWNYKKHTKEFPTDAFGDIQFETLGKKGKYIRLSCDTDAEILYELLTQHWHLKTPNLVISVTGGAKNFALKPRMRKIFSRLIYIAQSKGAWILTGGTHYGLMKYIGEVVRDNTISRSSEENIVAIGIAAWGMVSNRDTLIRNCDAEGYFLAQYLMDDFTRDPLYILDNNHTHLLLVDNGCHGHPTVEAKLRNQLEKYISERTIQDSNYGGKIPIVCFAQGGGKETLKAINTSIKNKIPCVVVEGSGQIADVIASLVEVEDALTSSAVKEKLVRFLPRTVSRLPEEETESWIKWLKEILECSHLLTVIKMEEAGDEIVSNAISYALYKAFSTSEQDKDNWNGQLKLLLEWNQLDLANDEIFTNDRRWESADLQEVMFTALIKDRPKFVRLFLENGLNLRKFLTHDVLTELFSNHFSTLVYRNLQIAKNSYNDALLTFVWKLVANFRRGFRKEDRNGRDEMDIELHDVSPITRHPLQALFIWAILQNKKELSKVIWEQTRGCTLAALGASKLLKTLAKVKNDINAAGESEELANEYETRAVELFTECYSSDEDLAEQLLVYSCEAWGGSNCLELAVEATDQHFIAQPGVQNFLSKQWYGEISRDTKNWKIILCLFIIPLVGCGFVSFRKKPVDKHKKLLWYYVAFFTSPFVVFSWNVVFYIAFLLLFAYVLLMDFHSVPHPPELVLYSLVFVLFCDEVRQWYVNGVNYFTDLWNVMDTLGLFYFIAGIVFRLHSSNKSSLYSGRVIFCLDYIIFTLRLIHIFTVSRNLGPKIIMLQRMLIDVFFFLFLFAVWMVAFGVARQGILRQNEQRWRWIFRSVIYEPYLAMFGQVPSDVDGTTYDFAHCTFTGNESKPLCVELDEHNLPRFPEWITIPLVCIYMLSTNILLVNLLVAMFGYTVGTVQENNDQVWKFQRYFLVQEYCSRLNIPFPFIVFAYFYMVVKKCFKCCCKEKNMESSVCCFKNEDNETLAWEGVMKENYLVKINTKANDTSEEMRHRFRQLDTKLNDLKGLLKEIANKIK
- Method Description: Single cell confocal Ca2+ imaging (fluo-4) in transfected HEK293 cells
- Type: cell-based
- Parameters: host or cells: HEK293 (ATCC CRL-1573.3), transient
- Particulars: confocal imaging, Fig 4E; read-out: EC50, Ca2+ mobilization in TRPM8 expressing cells
Value Kind: EC50 (µM)

// fetch hTRPM8 (Homo sapiens, UniProt Q7Z2W7) EC50 for O=C(C1CCCCC1)N1CC(=O)N2CCc3ccccc3[C@H]2C1 [(S)-PZQ]
19.2

// same read-out, input: O=C(C1CCCCC1)N1CC(=O)N2CCc3ccccc3C2C1 (racemic)
19
